Test system: Wolbachia pipientis
EXPERIMENT_NOTES: Anti-Wolbachia Cell-Based Screen
Format: functional
Design: scale not given: in the data most compounds retested in dose-response had high values
ASSAY_CONTEXT: 5 µM
The whole screen tested about 48,000 compounds, of which about 13,000 (27%) showed an effect of 50% or more. The list shows a part of the results.
REPORTED_METRIC: Percent Effect (%)

[[record]]
compound = "COCCNC(=O)C1CN(Cc2cccnc2)Cc2ccnn2C1.O=C(O)C(F)(F)F.O=C(O)C(F)(F)F.O=C(O)C(F)(F)F (stereo not given)"
value = 1.319

[[record]]
compound = "CC(NC(=O)c1cc(C(C)C)[nH]n1)C(=O)Nc1ccccc1 (stereo not given)"
value = -6.667

[[record]]
compound = "CC(C)COC(=O)N1CCN(C(=O)c2ccc3nccn3c2)CC1"
value = -2.651

[[record]]
compound = "CC(=O)N1Cc2ccnn2CC(C(=O)NCc2cccnc2)C1.O=C(O)C(F)(F)F (stereo not given)"
value = 105.9

[[record]]
compound = "CC(C)C1CN(C(=O)c2cc(=O)[nH]c(=O)[nH]2)CCC(=O)N1CC1CC1 (stereo not given)"
value = 7.498

